test system: Escherichia coli TOP10; experiment: shrunken log2 fold change of peptide-encoding DNA abundance (4.5 h post-induction vs induction); higher = less antimicrobial activity (less host growth inhibition); settings: time post-induction: 4.5 h; library: site-saturation at positions 5, 18, 19, 20
Bucketed by reported shrunken log2 fold change, buckets being lower segment: < -0.09; middle segment: ≥ -0.09 and < 0.1; upper segment: ≥ 0.1

Some solved entries appear below for comparison.
>>> assigned_class("RRIRWRPPRLPRPRPRPWKMPRP")
"middle segment"
>>> assigned_class("RRIRSRPPRLPRPRPRPDESPRP")
"lower segment"
>>> assigned_class("RRIRFRPPRLPRPRPRPEPVPRP")
"upper segment"

Query block: Kindly identify the class of RRIRMRPPRLPRPRPRPPHGPRP .
Result block: upper segment

Query block: Kindly identify the class of RRIRIRPPRLPRPRPRPGNRPRP .
Result block: middle segment

Query block: Kindly identify the class of RRIRDRPPRLPRPRPRPFNTPRP .
Result block: lower segment

Query block: Kindly identify the class of RRIRWRPPRLPRPRPRPPAHPRP .
Result block: upper segment

Query block: Kindly identify the class of RRIRIRPPRLPRPRPRPHFWPRP .
Result block: middle segment

Query block: Kindly identify the class of RRIRGRPPRLPRPRPRPCFVPRP .
Result block: upper segment

Query block: Kindly identify the class of RRIRTRPPRLPRPRPRPLQKPRP .
Result block: lower segment

Query block: Kindly identify the class of RRIRARPPRLPRPRPRPKHNPRP .
Result block: upper segment

Query block: Kindly identify the class of RRIRFRPPRLPRPRPRPLDGPRP .
Result block: lower segment

Query block: Kindly identify the class of RRIRLRPPRLPRPRPRPSRPPRP .
Result block: upper segment

Query block: Kindly identify the class of RRIRQRPPRLPRPRPRPWPDPRP .
Result block: middle segment

Query block: Kindly identify the class of RRIRVRPPRLPRPRPRPDRHPRP .
Result block: middle segment

* * *

test system: Escherichia coli TOP10; assay: shrunken log2 fold change of peptide-encoding DNA abundance (4.5 h post-induction vs induction); higher = less antimicrobial activity (less host growth inhibition); settings: time post-induction: 4.5 h; library: site-saturation at positions 5, 18, 19, 20;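 also: peptides expressed intracellularly from a pBAD plasmid library in pooled LB shake-flask culture, induced with 0.3% L-arabinose, DNA abundance read by NGS, three biological replicates, DESeq2 with apeglm shrinkage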
Could you label it label 1 if measured shrunken log2 fold change is -0.02 or higher, and label 0 otherwise?

Some solved entries appear below for comparison.
>>> assigned_class("RRIRERPPRLPRPRPRPPSCPRP")
"label 1"
>>> assigned_class("RRIRERPPRLPRPRPRPRWIPRP")
"label 1"
>>> assigned_class("RRIRTRPPRLPRPRPRPSMYPRP")
"label 0"
>>> assigned_class("RRIRWRPPRLPRPRPRPRWVPRP")
"label 1"

Query block: Please indicate if the recorded shrunken log2 fold change for RRIRYRPPRLPRPRPRPWLRPRP meets or exceeds -0.02.
Result block: label 1

Query block: Please indicate if the recorded shrunken log2 fold change for RRIRSRPPRLPRPRPRPGFNPRP meets or exceeds -0.02.
Result block: label 0

Query block: Please indicate if the recorded shrunken log2 fold change for RRIRLRPPRLPRPRPRPSEVPRP meets or exceeds -0.02.
Result block: label 0

Query block: Please indicate if the recorded shrunken log2 fold change for RRIRVRPPRLPRPRPRPYIWPRP meets or exceeds -0.02.
Result block: label 0

Query block: Please indicate if the recorded shrunken log2 fold change for RRIRFRPPRLPRPRPRPFLQPRP meets or exceeds -0.02.
Result block: label 0
